target: KMT9 (Homo sapiens); experiment: KMT9 thermal shift assay (SyproOrange); type: binding; conditions: 500 µM compound, 2 μM KMT9; read-out: Thermal shift (ΔTm)
We begin with a simple list: items and their reported ΔTm at 500 µM.

compound=COc1cc(OC)cc([C@H]2C[C@@H](n3cc(-c4ccn(Cc5ccccc5)n4)c4c(N)nc(Cl)nc43)[C@H](O)[C@@H]2O)c1 datavalue="≤ 10 °C"
compound=Nc1ncnc2c1ccn2[C@@H]1C[C@H]([C@H]2CCCN2)[C@@H](O)[C@H]1O datavalue="≤ 10 °C"
compound=C=CCN1CCC([C@H]2C[C@@H](n3cc(-c4nc(Cc5ccccc5)cs4)c4c(N)nc(Cl)nc43)[C@H](O)[C@@H]2O)CC1 datavalue="15 to 20 °C"
compound=CN(CCCNCCc1ccc(F)cc1)C[C@H]1C[C@@H](n2cc(-c3ccn(C)n3)c3c(N)nc(Cl)nc32)[C@H](O)[C@@H]1O datavalue="> 20 °C"
compound="O[C@@H]1[C@H](O)C(CNCCCNCCc2ccc(F)cc2)C[C@H]1n1cc(-c2cccs2)c2cnc(Cl)nc21 (mixture of isomers)" datavalue="10 to 15 °C"

Could you now look at the following compound, please?
Query: Given the entry CC1CNCCC1[C@H]1C[C@@H](n2cc(-c3nc(Cc4ccccc4)cs3)c3c(N)ncnc32)[C@H](O)[C@@H]1O (stereo partly drawn) , what ΔTm at 500 µM was observed with KMT9 (Homo sapiens)?
Reply: 10 to 15 °C

====

Molecular target: KMT9 (Homo sapiens, UniProt Q9Y5N5)
Sequence (Q9Y5N5 1-214): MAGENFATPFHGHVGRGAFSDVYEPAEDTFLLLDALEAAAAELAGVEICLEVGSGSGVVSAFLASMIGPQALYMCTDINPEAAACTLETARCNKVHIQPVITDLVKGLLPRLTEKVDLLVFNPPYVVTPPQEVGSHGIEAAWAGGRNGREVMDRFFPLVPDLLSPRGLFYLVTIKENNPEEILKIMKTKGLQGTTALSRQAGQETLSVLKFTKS
Sequence (Q9UI30 1-120 isoform Q9UI30-2 partner): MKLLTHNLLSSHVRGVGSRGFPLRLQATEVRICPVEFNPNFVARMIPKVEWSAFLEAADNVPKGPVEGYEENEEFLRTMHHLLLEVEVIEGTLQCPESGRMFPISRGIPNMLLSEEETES
Assay: KMT9 thermal shift assay (SyproOrange)
Assay type: binding
Settings: ΔTm class; 500 uM compound, 2 μM KMT9; read-out: Thermal shift
A collection of compounds and their measured ΔTm at 500 µM

compound=O[C@@H]1[C@H](O)[C@@H](C2=CCCN(CC(F)(F)F)C2)C[C@H]1n1cc(-c2nc(Cc3ccccc3)cs2)c2cnc(Cl)nc21 recordedendpoint="ΔTm at 500 µM" datavalue="≤ 10 °C"
compound=Nc1nc(Cl)nc2c1c(-c1ccccc1)cn2[C@@H]1C[C@H](CNCCCNCCc2ccc(F)cc2)[C@@H](O)[C@H]1O recordedendpoint="ΔTm at 500 µM" datavalue="> 20 °C"
compound=CCN1CCC([C@H]2C[C@@H](n3cc(-c4nc(Cc5ccccc5)cs4)c4c(N)nc(Cl)nc43)[C@H](O)[C@@H]2O)CC1 recordedendpoint="ΔTm at 500 µM" datavalue="> 20 °C"
compound=CN1CCC([C@H]2C[C@@H](n3cc(-c4nc(Cc5ccccc5)cs4)c4cnc(Cl)nc43)[C@H](O)[C@@H]2O)CC1 recordedendpoint="ΔTm at 500 µM" datavalue="15 to 20 °C"
compound=CN1CCC([C@H]2C[C@@H](n3cc(-c4ccn(S(=O)(=O)c5ccccc5)n4)c4c(N)nc(Cl)nc43)[C@H](O)[C@@H]2O)CC1 recordedendpoint="ΔTm at 500 µM" datavalue="> 20 °C"

Query: Query (compound): `CC(C)N1CCC([C@H]2C[C@@H](n3cc(-c4nc(Cc5ccccc5)cs4)c4c(N)nc(Cl)nc43)[C@H](O)[C@@H]2O)CC1` ; field requested: ΔTm at 500 µM
Reply: > 20 °C

Query: Can you share its ΔTm at 500 µM? I mean this compound: `Nc1nc(Cl)nc2c1c(-c1nc(Cc3ccccc3)cs1)cn2[C@@H]1C[C@H](C2CCN(CC3CC3)CC2)[C@@H](O)[C@H]1O`
Reply: > 20 °C

Query: Give the measured ΔTm at 500 µM of `CCN(CCCNCCc1ccc(F)cc1)C[C@H]1C[C@@H](n2cc(-c3ccccc3)c3c(N)nc(Cl)nc32)[C@H](O)[C@@H]1O` .
Reply: > 20 °C

Query: Would you mind telling me what ΔTm at 500 µM value was observed for `CN1CCC([C@H]2C[C@@H](n3cc(-c4nc(Cc5ccccc5)cs4)c4c(N)nc(Cl)nc43)[C@H](O)[C@@H]2O)CC1` ?
Reply: > 20 °C

Query: For `Nc1ncnc2c1c(Br)cn2[C@@H]1C[C@H](c2ccccc2)[C@@H](O)[C@H]1O` , what is its reported ΔTm at 500 µM?
Reply: ≤ 10 °C

Query: Bench note: what ΔTm at 500 µM did `CN1CCC([C@H]2C[C@@H](n3cc(-c4ccn(S(=O)(=O)c5ccccc5)n4)c4cnc(Cl)nc43)[C@H](O)[C@@H]2O)CC1` show?
Reply: 15 to 20 °C

Query: Any idea what its ΔTm at 500 µM is? The compound is `CS(=O)(=O)n1ccc(-c2cn([C@@H]3C[C@H](CNCCCNCCc4ccccc4)[C@@H](O)[C@H]3O)c3nc(Cl)ncc23)n1`
Reply: 15 to 20 °C

Query: I am curious: what ΔTm at 500 µM value has been reported for O[C@@H]1[C@H](O)[C@@H](C2CCCN(CC(F)(F)F)C2)C[C@H]1n1cc(-c2nc(Cc3ccccc3)cs2)c2cnc(Cl)nc21 (stereo partly shown) ?
Reply: ≤ 10 °C

Cited source for all entries: patent US20250188110A1
